# System: SpTbr T-box DNA-binding domain (GST fusion);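 also: protein at 200 nM in PBS on universal double-stranded arrays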
# Sequence: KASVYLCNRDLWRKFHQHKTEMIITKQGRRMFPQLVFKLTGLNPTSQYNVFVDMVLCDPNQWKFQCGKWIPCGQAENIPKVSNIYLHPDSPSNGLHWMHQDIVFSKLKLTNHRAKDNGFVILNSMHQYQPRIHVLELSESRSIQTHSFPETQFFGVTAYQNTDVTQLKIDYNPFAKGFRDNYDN
# MEASUREMENT DESCRIPTION: PBM E-score of 8-mer (E-score (dimensionless, -0.5 to 0.5)); higher = stronger binding preference
# RECORDED CONDITIONS: the construct has about 5 more residues each side
Over roughly 33,000 sequences, “E-score (dimensionless, -0.5 to 0.5)” has its median near -0.046; the highest 2% begin near 0.36. The sample holds the highest values, similar sequences and a random draw of the others, so the mix is not that of the screen.
MEASURED PROPERTY: PBM E-score of 8-mer

Some entries whose results are on file:
| SEQ TEXT | PBM E-score of 8-mer |
| --- | --- |
| GAAAGTGA | 0.293 |
| ATCACCTG | 0.304 |

Next item in the queue.
## Input Report measured PBM E-score of 8-mer on SpTbr T-box DNA-binding domain (GST fusion); entry: CGTGCCAA
## Output 0.306

###

# Test system: SpTbr T-box DNA-binding domain (GST fusion);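 also: protein at 200 nM in PBS on universal double-stranded arrays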
# Sequence: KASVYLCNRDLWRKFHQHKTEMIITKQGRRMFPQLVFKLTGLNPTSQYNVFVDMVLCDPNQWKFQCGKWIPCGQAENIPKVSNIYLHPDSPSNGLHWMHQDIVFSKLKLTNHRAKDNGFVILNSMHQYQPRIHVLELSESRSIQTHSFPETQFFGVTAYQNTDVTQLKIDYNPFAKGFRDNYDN
# MEASUREMENT DESCRIPTION: PBM E-score of 8-mer (E-score (dimensionless, -0.5 to 0.5)); higher = stronger binding preference
# RECORDED CONDITIONS: target sequence: T-box / the construct has about 5 more residues each side
In all, about 33,000 sequences were measured (“E-score (dimensionless, -0.5 to 0.5)”: median about -0.046, highest 2% from about 0.36 on). Only a selection was taken, and the highest values are over-represented in it overall.
PBM E-score of 8-mer vs 0.1: at or above is Yes, below is No.

Here's what some known entries look like.
| SEQ TEXT | CLASS ASSIGNMENT |
| --- | --- |
| CCGCGACG | No |
| CTGTGATA | Yes |
| TACGACTA | No |
| CTGATGCA | No |
| CTAATGCA | No |
| GCATGCTA | No |
| AGAGGAGA | No |
| ACGATCTC | No |

## Input Reported PBM E-score of 8-mer at or above 0.1? ACGCCAAC
## Output Yes

## Input Reported PBM E-score of 8-mer at or above 0.1? GTGAGAGA
## Output Yes

###

# Tested on: SpTbr T-box DNA-binding domain (GST fusion);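 also: protein at 200 nM in PBS on universal double-stranded arrays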
# Sequence: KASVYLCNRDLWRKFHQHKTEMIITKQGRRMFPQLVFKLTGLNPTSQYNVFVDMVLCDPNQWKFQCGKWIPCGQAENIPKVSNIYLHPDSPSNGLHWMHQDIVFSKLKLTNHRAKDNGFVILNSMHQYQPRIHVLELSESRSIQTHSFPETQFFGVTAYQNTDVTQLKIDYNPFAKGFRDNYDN
# MEASUREMENT DESCRIPTION: PBM E-score of 8-mer (E-score (dimensionless, -0.5 to 0.5)); higher = stronger binding preference
# RECORDED CONDITIONS: target sequence: T-box / the construct has about 5 more residues each side
The full ranking holds about 33,000 sequences; the median of “E-score (dimensionless, -0.5 to 0.5)” is about -0.046, and the highest 2% start at about 0.36. The entries come from a sample that favours the highest values as a whole.
PBM E-score of 8-mer vs 0.4: at or above is y, below is n.

Here's what some known entries look like.
| SEQ TEXT | CLASS ASSIGNMENT |
| --- | --- |
| AAAGGTGG | n |
| AAAACTCC | n |
| TCCATCGA | n |
| AAAGGTGT | y |

## Input Reported PBM E-score of 8-mer at or above 0.4? AGCTAACT
## Output n

###

# Test system: SpTbr T-box DNA-binding domain (GST fusion);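 also: protein at 200 nM in PBS on universal double-stranded arrays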
# Sequence: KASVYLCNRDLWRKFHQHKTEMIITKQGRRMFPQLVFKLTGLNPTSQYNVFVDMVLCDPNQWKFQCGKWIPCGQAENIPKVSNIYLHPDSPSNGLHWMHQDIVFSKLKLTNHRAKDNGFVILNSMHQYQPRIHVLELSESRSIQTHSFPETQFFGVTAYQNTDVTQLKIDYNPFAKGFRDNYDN
# MEASUREMENT DESCRIPTION: PBM E-score of 8-mer (E-score (dimensionless, -0.5 to 0.5)); higher = stronger binding preference
# RECORDED CONDITIONS: target sequence: T-box / the construct has about 5 more residues each side
Over roughly 33,000 sequences, “E-score (dimensionless, -0.5 to 0.5)” has its median near -0.046; the highest 2% begin near 0.36. The full list was thinned out, with the highest values kept by preference.
PBM E-score of 8-mer vs 0.2: at or above is Yes, below is No.

Here's what some known entries look like.
| SEQ TEXT | ASSAY TARGET | CLASS ASSIGNMENT |
| --- | --- | --- |
| CAGCCTCC | SpTbr T-box DNA-binding domain (GST fusion) | No |
| CACACTGC | SpTbr T-box DNA-binding domain (GST fusion) | No |

## Input Reported PBM E-score of 8-mer at or above 0.2? GATGAGGC
## Output No

## Input Reported PBM E-score of 8-mer at or above 0.2? AGGCGTCA
## Output Yes

## Input Reported PBM E-score of 8-mer at or above 0.2? ATCACTTC
## Output Yes

## Input Reported PBM E-score of 8-mer at or above 0.2? CGGCGTCA
## Output Yes

## Input Reported PBM E-score of 8-mer at or above 0.2? CGGTGGAA
## Output No

## Input Reported PBM E-score of 8-mer at or above 0.2? CTAACTAG
## Output No

## Input Reported PBM E-score of 8-mer at or above 0.2? AGAGTGTC
## Output Yes

## Input Reported PBM E-score of 8-mer at or above 0.2? ACTTAGAG
## Output No

## Input Reported PBM E-score of 8-mer at or above 0.2? ACGTCCTA
## Output No

## Input Reported PBM E-score of 8-mer at or above 0.2? GGGCGTCA
## Output Yes

## Input Reported PBM E-score of 8-mer at or above 0.2? ACCTGTCT
## Output No

## Input Reported PBM E-score of 8-mer at or above 0.2? GCAGCGAA
## Output No

## Input Reported PBM E-score of 8-mer at or above 0.2? CAGCCGGA
## Output No

## Input Reported PBM E-score of 8-mer at or above 0.2? ATCTCGGA
## Output No

## Input Reported PBM E-score of 8-mer at or above 0.2? TAAGGTAA
## Output No

## Input Reported PBM E-score of 8-mer at or above 0.2? CCCACTTC
## Output No

## Input Reported PBM E-score of 8-mer at or above 0.2? CCCAATGA
## Output No

## Input Reported PBM E-score of 8-mer at or above 0.2? CACACTGA
## Output Yes

## Input Reported PBM E-score of 8-mer at or above 0.2? AACACTGA
## Output No

## Input Reported PBM E-score of 8-mer at or above 0.2? GACAATCC
## Output No

## Input Reported PBM E-score of 8-mer at or above 0.2? CAACTCTA
## Output No

## Input Reported PBM E-score of 8-mer at or above 0.2? AACACTTC
## Output Yes

## Input Reported PBM E-score of 8-mer at or above 0.2? TAAAGAAA
## Output No

## Input Reported PBM E-score of 8-mer at or above 0.2? CCCAACGG
## Output No

###

# Tested on: SpTbr T-box DNA-binding domain (GST fusion);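 also: protein at 200 nM in PBS on universal double-stranded arrays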
# Sequence: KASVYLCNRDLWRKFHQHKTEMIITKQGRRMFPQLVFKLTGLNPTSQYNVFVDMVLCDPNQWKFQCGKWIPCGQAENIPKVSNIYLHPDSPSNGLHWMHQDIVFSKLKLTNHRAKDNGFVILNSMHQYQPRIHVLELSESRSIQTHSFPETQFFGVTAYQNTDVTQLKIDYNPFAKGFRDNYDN
# MEASUREMENT DESCRIPTION: PBM E-score of 8-mer (E-score (dimensionless, -0.5 to 0.5)); Tbr is Tbrain of the sea star Patiria miniata (Pm) or the sea urchin Strongylocentrotus purpuratus (Sp); higher = stronger binding preference
# RECORDED CONDITIONS: target sequence: T-box / the construct has about 5 more residues each side
In all, about 33,000 sequences were measured (“E-score (dimensionless, -0.5 to 0.5)”: median about -0.046, highest 2% from about 0.36 on). The list comes from a sample in which the highest values are over-represented; it also holds close analogues and randomly drawn sequences.
# key: entry, value: PBM E-score of 8-mer
Please respond with just the number, no unit label.

| SEQ TEXT | PBM E-score of 8-mer |
| --- | --- |
| ACGAACCG | 0.192 |

## Input Return the recorded PBM E-score of 8-mer value; entry: CCACCTAC
## Output 0.248

## Input Return the recorded PBM E-score of 8-mer value; entry: CTTTGACA
## Output 0.174

## Input Return the recorded PBM E-score of 8-mer value; entry: ACACATCA
## Output 0.339

## Input Return the recorded PBM E-score of 8-mer value; entry: AGGATGAT
## Output -0.095

## Input Return the recorded PBM E-score of 8-mer value; entry: ACACATCT
## Output 0.31

## Input Return the recorded PBM E-score of 8-mer value; entry: CCCACCAC
## Output -0.00552

## Input Return the recorded PBM E-score of 8-mer value; entry: CAGAGCTC
## Output -0.265

## Input Return the recorded PBM E-score of 8-mer value; entry: CGTTGACC
## Output 0.0141

## Input Return the recorded PBM E-score of 8-mer value; entry: GCCTCCGA
## Output -0.0614

## Input Return the recorded PBM E-score of 8-mer value; entry: TAGTGGGA
## Output -0.0317

## Input Return the recorded PBM E-score of 8-mer value; entry: GAGTGTGC
## Output 0.296

These measurements were taken from the supplement of paper PMC4166925.
